System: FMOC02_3 (patient-derived low-grade serous ovarian cancer cells)
Protocol notes: drug sensitivity score (DSS3, normalised partial AUC of % inhibition dose-response) (DSS (score)); higher = more sensitive (stronger inhibition of viability); extreme values may be limits of the assay
Condition context: 72 h; library: FO5A; assay format: 2D, 384-well, CellTiter-Glo
Cut-off 5 on drug sensitivity score, inclusive. At or above means Criterion met; below means Criterion not met.

I'd appreciate it if you could say whether NC(=O)NO [Hydroxyurea] has drug sensitivity score at least equal to 5.
Criterion not met

I'd appreciate it if you could say whether O=C(NOCCO)c1ccc2cncn2c1Nc1ccc(I)cc1F has drug sensitivity score at least equal to 5.
Criterion met

I'd appreciate it if you could say whether COc1cc2c(Oc3ccc4[nH]c(C)cc4c3F)ncnc2cc1OCCCN1CCCC1 has drug sensitivity score at least equal to 5.
Criterion not met

I'd appreciate it if you could say whether Cc1nc(NC(=O)N2CCC[C@H]2C(N)=O)sc1-c1ccnc(C(C)(C)C(F)(F)F)c1 has drug sensitivity score at least equal to 5.
Criterion met

I'd appreciate it if you could say whether Cc1ncc(-c2ccnc(Nc3ccc(S(C)(=O)=O)cc3)n2)n1C(C)C has drug sensitivity score at least equal to 5.
Criterion met

I'd appreciate it if you could say whether Cn1cc(CNCC2CCN(c3ncc(C(=O)NO)cn3)CC2)c2ccccc21 has drug sensitivity score at least equal to 5.
Criterion met

I'd appreciate it if you could say whether C[C@H]1C[C@@H]2[C@H]([C@@H](O)C[C@@]3(C)[C@H]2CC[C@]3(O)C(=O)CO)[C@@]2(C)C=CC(=O)C=C12 has drug sensitivity score at least equal to 5.
Criterion not met

I'd appreciate it if you could say whether Cc1ccc(NC(=O)c2ccc(CN3CC[C@H](N(C)C)C3)c(C(F)(F)F)c2)cc1Nc1nccc(-c2cncnc2)n1 has drug sensitivity score at least equal to 5.
Criterion not met

I'd appreciate it if you could say whether C=CC(=O)Nc1cc(Nc2nccc(-c3cn(C)c4ccccc34)n2)c(OC)cc1N(C)CCN(C)C has drug sensitivity score at least equal to 5.
Criterion met

I'd appreciate it if you could say whether Nc1ccccc1NC(=O)c1ccc(CNc2nccc(-c3cccnc3)n2)cc1 has drug sensitivity score at least equal to 5.
Criterion met

* * *

Test system: FMOC06 (patient-derived mucinous ovarian cancer cells)
Protocol notes: drug sensitivity score (DSS3, normalised partial AUC of % inhibition dose-response) (DSS (score)); higher = more sensitive (stronger inhibition of viability); extreme values may be limits of the assay
Condition context: 72 h; library: FO5A; assay format: 2D, 384-well, CellTiter-Glo
Assignment: determine reported drug sensitivity score for the given compounds.
Output spec: single numeric token, no unit.

Query (compound): CO[C@@H]1[C@H](N(C)C(=O)c2ccccc2)C[C@H]2O[C@]1(C)n1c3ccccc3c3c4c(c5c6ccccc6n2c5c31)C(=O)NC4 ; field requested: drug sensitivity score
9.1

Query (compound): Cc1cc(-c2nc(-c3ccc(OC(F)(F)F)cc3)no2)nn1Cc1ccnc(N2CCN(C3CC3)CC2)c1 ; field requested: drug sensitivity score
0

Query (compound): CC(=O)OC[C@H]1O[C@@H]([S-])[C@H](OC(C)=O)[C@@H](OC(C)=O)[C@@H]1OC(C)=O.CCP(CC)CC.[Au+] ; field requested: drug sensitivity score
4.1

Query (compound): C[C@]1(O)C[C@@H](c2nc(-c3ccc4ccc(-c5ccccc5)nc4c3)c3c(N)nccn32)C1 ; field requested: drug sensitivity score
0.8

Query (compound): NC(=O)c1cccc(-c2cccc(OC(=O)NC3CCCCC3)c2)c1 ; field requested: drug sensitivity score
0

Query (compound): CC(C)(C)c1cnc(CSc2cnc(NC(=O)C3CCNCC3)s2)o1 ; field requested: drug sensitivity score
23.2

Query (compound): FC(F)(F)c1ccc(CNc2ccc(Cc3c[nH]c4ncc(Cl)cc34)cn2)cn1 ; field requested: drug sensitivity score
0.9

Query (compound): Cc1c(Cn2c(C)nc3c(C(=O)O)cc(N4CCOCC4)cc32)cccc1C(F)(F)F ; field requested: drug sensitivity score
0.6

Query (compound): CONC(=O)c1ccccc1Nc1cc(Nc2cc(C)nn2C(C)C)ncc1Cl ; field requested: drug sensitivity score
0

Query (compound): COc1c(C)cnc(Cn2cnc3c(Cl)nc(N)nc32)c1C ; field requested: drug sensitivity score
10

Query (compound): CCNC(=O)c1noc(-c2cc(C(C)C)c(O)cc2O)c1-c1ccc(CN2CCOCC2)cc1 ; field requested: drug sensitivity score
3.2

Query (compound): C=C1C[C@@H]2CC[C@@]34C[C@H]5O[C@H]6[C@@H](O3)[C@H]3O[C@H](CC[C@@H]3O[C@H]6[C@H]5O4)CC(=O)C[C@@H]3[C@@H](OC)[C@@H](C[C@H](O)CN)O[C@H]3C[C@H]3O[C@@H](CC[C@@H]1O2)C[C@@H](C)C3=C ; field requested: drug sensitivity score
12.1

Query (compound): COc1cc(N2CCC(N3CCN(C)CC3)CC2)ccc1Nc1ncc(Cl)c(Nc2ccccc2P(C)(C)=O)n1 ; field requested: drug sensitivity score
4.7

Query (compound): CC[C@H](CC#N)OC(=O)N[C@@H](C)c1cccc(NC(=O)Nc2ccc(-c3cnco3)c(OC)c2)c1 ; field requested: drug sensitivity score
13.4

Query (compound): O=C(CCCCCCC(=O)Nc1ccc([C@H]2O[C@@H](CSc3nc(-c4ccccc4)c(-c4ccccc4)o3)C[C@@H](c3ccc(CO)cc3)O2)cc1)NO ; field requested: drug sensitivity score
4.1

Query (compound): C/C=C1\NC(=O)[C@H]2CSSCC/C=C/[C@H](CC(=O)N[C@H](C(C)C)C(=O)N2)OC(=O)[C@H](C(C)C)NC1=O ; field requested: drug sensitivity score
27.6

Query (compound): CC(C)(O)CC(=O)NCCn1ccc2ncnc(Nc3ccc(Oc4cccc(C(F)(F)F)c4)c(Cl)c3)c21 ; field requested: drug sensitivity score
1.3

* * *

Assignment: determine reported drug sensitivity score for the given compounds.
Tested on: FMOC17 (patient-derived low-grade serous ovarian cancer cells)
Protocol notes: drug sensitivity score (DSS3, normalised partial AUC of % inhibition dose-response) (DSS (score)); higher = more sensitive (stronger inhibition of viability); extreme values may be limits of the assay
Condition context: 72 h; library: FO5A; assay format: 2D, 384-well, CellTiter-Glo
Output spec: single numeric token, no unit.

Query (compound): CCCS(=O)(=O)Nc1ccc(F)c(C(=O)c2c[nH]c3ncc(-c4ccc(Cl)cc4)cc23)c1F [Vemurafenib] ; field requested: drug sensitivity score
1

Query (compound): CNC(=O)c1cc(Oc2ccc(NC(=O)Nc3ccc(Cl)c(C(F)(F)F)c3)cc2)ccn1 [Sorafenib] ; field requested: drug sensitivity score
0.5

Query (compound): CC(C)Cn1cnc2c(N)nc3ccccc3c21 [Imiquimod] ; field requested: drug sensitivity score
0

Query (compound): COCC1(CO)C(=O)C2CCN1CC2 (stereo unspecified) [APR-246] ; field requested: drug sensitivity score
0

Query (compound): COc1ccc(Cn2ccc3ccc(C(=O)NO)cc32)cc1 ; field requested: drug sensitivity score
1.4

Query (compound): COCCNCc1ccc(-c2cc3nccc(Oc4ccc(NC(=O)C5(C(=O)Nc6ccc(F)cc6)CC5)cc4F)c3s2)nc1 [Sitravatinib] ; field requested: drug sensitivity score
2.1

Query (compound): CCCc1cc(C)[nH]c(=O)c1CNC(=O)c1cc(-c2ccnc(N3CCN(C)CC3)c2)cc2c1cnn2C(C)C [GSK343] ; field requested: drug sensitivity score
0.3

Query (compound): CN(C)CCCOc1ccc(-c2ccc3ncc4c(c3c2)n(C2CCOCC2)c(=O)n4C)cn1 [AZD0156] ; field requested: drug sensitivity score
2.2

Query (compound): S=C(NCc1ccc2c(c1)OCO2)N1CCN(c2ncnc3c2oc2ccccc23)CC1 [Amuvatinib] ; field requested: drug sensitivity score
0.3

Query (compound): O[C@H](C[C@H]1c2c(F)cccc2-c2cncn21)[C@H]1CC[C@H](O)CC1 [GDC-0919] ; field requested: drug sensitivity score
0.8

Query (compound): Nc1nc(OCc2cc(Br)cs2)c2[nH]cnc2n1 [Lomeguatrib] ; field requested: drug sensitivity score
0

Query (compound): O=c1[nH]c(C2CCCN2)nc2c1oc1ccc(Cl)cc12 (stereo unspecified) ; field requested: drug sensitivity score
0

Query (compound): O=c1[nH]c(=O)n([C@H]2C[C@H](O)[C@@H](CO)O2)cc1C(F)(F)F [Trifluridine] ; field requested: drug sensitivity score
0

Query (compound): Nc1cc(COc2c(Cl)cc(C[C@H](N)C(=O)O)cc2Cl)c2oc(-c3ccccc3)nc2c1 [JPH203] ; field requested: drug sensitivity score
0

Query (compound): Cn1cc(C[C@@H](N)C(=O)O)c2ccccc21 [1-methyl-D-tryptophan] ; field requested: drug sensitivity score
0

Query (compound): CCN1CCN(Cc2ccc(Nc3ncc(F)c(-c4cc(F)c5nc(C)n(C(C)C)c5c4)n3)nc2)CC1 [Abemaciclib] ; field requested: drug sensitivity score
3.4

Query (compound): CN1CCN(C(=O)c2ccc3cc(CCNc4ncnc5ccc(C#N)cc45)ccc3c2)CC1 [Senexin B] ; field requested: drug sensitivity score
0.6

Query (compound): C[C@@H]1CN(C(=O)c2ccc(NC(=O)c3cc(O[C@H](C)c4c(Cl)ccc(F)c4Cl)c(N)nn3)cc2)C[C@H](C)N1 [Ensartinib] ; field requested: drug sensitivity score
1.5

Query (compound): COc1cc2nccc(Oc3ccc(NC(=O)Nc4cc(C)on4)c(Cl)c3)c2cc1OC [Tivozanib] ; field requested: drug sensitivity score
2.8

Query (compound): Oc1ccc2c(c1)CC[C@H](c1ccccc1)[C@@H]2c1ccc(OCCN2CCCC2)cc1 [Lasofoxifene] ; field requested: drug sensitivity score
0

Query (compound): C=CC(=O)Nc1cccc(Oc2nc(Nc3ccc(N4CCN(C)CC4)cc3)nc3ccsc23)c1 [Olmutinib] ; field requested: drug sensitivity score
2.6

Taken from the supplement of paper PMC9938120.
